# test_system: TRPML2 (Homo sapiens)
# Construct: expressed in transfected cells
# assay: Fluorescent TRPML2 assay (performed as for TRPML1, substituting the TRPML2 subtype)
# Assay type: cell-based
# protocol_conditions: fluorescent calcium assay
# Method: HEK-293 Trex cells were stably transfected with a construct consisting of the human coding sequence for TRPML1 cloned into the […] plasmid pCDNA5 T/O. Mutations were introduced into the TRPML1 sequence to facilitate expression on the cell surface (Silvia Vergarajauregui, Rosa Puertollano, Traffic. 2006 March; 7(3): 337-353). […] The Trypsin-EDTA is diluted with growth media, and cells are counted. […] EC50 values were calculated using a non-linear regression of Prism. […]
measured_attribute: EC50

# annotated cases, reported EC50 shown
C[C@H]1CN(C(=O)OC(C)(C)C)CCN1c1ncnc2c1c(C1CCOCC1)nn2-c1ccccc1    > 2000 nM
CC(C)(C)OC(=O)N1CCN(c2ncnc3c2c(C2CC2)cn3-c2ccc(Cl)cc2)CC1    100 to 500 nM
C[C@@H]1CN(c2ncnc3c2c(-c2ccccc2F)cn3-c2cnn(C)c2)[C@@H](C)CN1C(=O)OCC(F)(F)F    > 2000 nM
Cc1c(Cl)cccc1-n1cc(-c2ccccn2)c2c(N3CCN(C(=O)OC(C)(C)C)CC3C)ncnc21 (stereo not shown)    100 to 500 nM
Cc1ccc(Cl)cc1-n1cc(-c2cnccn2)c2c(N3CCN(C(=O)OC(C)(C)C)CC3C)ncnc21 (stereo not shown)    500 to 2000 nM

input: Returns the measured EC50 for the input compound. Input: `C[C@H]1CN(C(=O)OC(C)(C)C)CCN1c1ncnc2c1c(-c1cccnc1)cn2-c1cc(F)cc(F)c1`
output: 500 to 2000 nM

input: Record request: EC50 value, item `C[C@H]1CN(C(=O)OC(C)(C)C)CCN1c1ncnc2c1c(-c1nccnc1C(F)(F)F)cn2-c1cccc(Cl)c1`
output: 500 to 2000 nM

----------
Listed here are molecules together with their documented pEC50.
# test_system: TRPML2 (Homo sapiens, UniProt Q8IZK6)
# Construct: expressed in transfected cells
# Sequence (Q8IZK6 1-566): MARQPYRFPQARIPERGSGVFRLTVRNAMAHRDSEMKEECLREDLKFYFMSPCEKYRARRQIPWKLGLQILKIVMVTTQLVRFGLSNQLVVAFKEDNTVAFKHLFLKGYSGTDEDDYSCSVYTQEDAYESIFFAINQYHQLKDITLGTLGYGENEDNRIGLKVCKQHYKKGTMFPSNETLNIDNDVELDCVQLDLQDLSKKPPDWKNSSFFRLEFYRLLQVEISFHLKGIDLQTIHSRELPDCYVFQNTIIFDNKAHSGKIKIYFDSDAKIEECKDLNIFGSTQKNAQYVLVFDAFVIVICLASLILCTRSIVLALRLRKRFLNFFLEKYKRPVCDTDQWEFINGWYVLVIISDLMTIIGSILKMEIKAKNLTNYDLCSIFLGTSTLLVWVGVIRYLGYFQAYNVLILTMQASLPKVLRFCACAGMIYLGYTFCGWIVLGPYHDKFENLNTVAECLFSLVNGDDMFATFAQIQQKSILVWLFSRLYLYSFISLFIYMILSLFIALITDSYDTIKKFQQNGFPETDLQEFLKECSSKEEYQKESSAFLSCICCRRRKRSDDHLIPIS
# assay: Fluorescent TRPML2 assay (performed as for TRPML1, substituting the TRPML2 subtype)
# Assay type: cell-based
# protocol_conditions: fluorescent calcium assay
pEC50: −log10 of the molar value.

C[C@@H]1CN(c2ncnc3c2c(-c2ccccc2F)cn3-c2cnn(C)c2)[C@@H](C)CN1C(=O)OC(C)(C)C    5.70 to 6.30
C[C@H]1CN(C(=O)OC(C)(C)C(F)(F)F)CCN1c1ncnc2c1c(C1CC1)cn2-c1cc(C#N)ccn1    5.70 to 6.30
C[C@@H]1CN(c2ncnc3c2c(-c2ccncc2)cn3-c2cc(F)cc(F)c2)CCN1C(=O)OC(C)(C)C    5.70 to 6.30
C[C@@H]1CN(c2ncnc3c2c(C2CC2)cn3-c2cc(F)c(F)c(F)c2)CCN1C(=O)OC(C)(C)C    6.30 to 7.00
CCOC(=O)N1CCN(c2ncnc3c2c(C2CC2)cn3-c2ccc(Cl)cc2)[C@@H](C)C1    6.30 to 7.00
C[C@H]1CN(C(=O)OC(C)(C)C)CCN1c1ncnc2c1c(-n1cccn1)cn2-c1cccc(Cl)c1    5.70 to 6.30
C[C@H]1CN(C(=O)OC(C)(C)C)CCN1c1ncnc2c1c(C1CC1)cn2-c1cc(F)ccc1F    5.70 to 6.30
COc1cc(-n2cc(C3CC3)c3c(N4CCN(C(=O)OC(C)(C)C)C[C@@H]4C)ncnc32)cc(F)c1F    5.70 to 6.30

input: Look up pEC50 for this molecule: `C[C@@H]1CN(c2ncnc3c2c(N2CCCC2)cn3-c2cccc(OC(F)(F)F)c2)CCN1C(=O)OC(C)(C)C`
output: > 7.00

input: Name the reported pEC50 value associated with the molecule `C[C@H]1CN(C(=O)OC(C)(C)C)CCN1c1ncnc2c1c(N1CCN(C)CC1)cn2-c1cc(C#N)ccn1`
output: < 5.70

input: Which pEC50 is reported for this molecule? `CCN(CC)c1cn(-c2cc(C#N)ccn2)c2ncnc(N3CCN(C(=O)OC(C)(C)C(F)(F)F)C[C@@H]3C)c12`
output: 6.30 to 7.00

input: Sample `C[C@H]1CN(C(=O)OC(C)(C)C)CCN1c1ncnc2c1c(-c1ccccc1F)cn2-c1cnnc(C#N)c1` — what was its pEC50?
output: 6.30 to 7.00

input: GET /values?readout=pEC50&item= Cc1c(Cl)cccc1-n1cc(-c2cnccn2)c2c(N3CCN(C(=O)OC(C)(C)C)CC3C)ncnc21 (stereo not drawn)
output: 5.70 to 6.30

input: Consider the molecule CC(C)(C)OC(=O)N1CCN(c2ncnc3c2c(C2CC2)cn3-c2cc(F)cc(F)c2)C[C@@H]1CF (single isomer, unassigned) and give its measured pEC50.
output: < 5.70

input: Which pEC50 is reported for this molecule? `C[C@@H]1CN(c2ncnc3c2c(-c2ccccn2)cn3-c2cc(F)cc(F)c2)CCN1C(=O)OC(C)(C)C`
output: 5.70 to 6.30

input: Fill blank: measured pEC50 of the molecule `CC(C)N(C)c1cn(-c2cc(C#N)ccn2)c2ncnc(N3CCN(C(=O)OC(C)(C)C)C[C@@H]3C)c12` is ____.
output: > 7.00

input: Which pEC50 reading was recorded for the molecule `C[C@H]1CN(C(=O)OC(C)(C)C)CCN1c1ncnc2c1c(N1CCOCC1)cn2-c1cc(F)cc(F)c1` ?
output: 5.70 to 6.30

input: Value lookup for pEC50; key = `C[C@@H]1COCCN1c1cn(-c2cc(C#N)ccn2)c2ncnc(N3CCN(C(=O)OC(C)(C)C)C[C@@H]3C)c12`
output: 6.30 to 7.00
